molecular target: recombinant human Meningioma Expressed Antigen 5 (MGEA5), also referred to as O-GlcNAcase (OGA) (Homo sapiens, UniProt O60502); construct: Full length OGA enzyme was purchased at OriGene (cat #TP322411); purchased OriGene TP322411; test: OGA biochemical assay (inhibition of FM-GlcNAc hydrolysis, fluorescence); conditions: FM-GlcNAc substrate, 6 h at room temperature, read-out: Enzymatic hOGA, pIC50 (converted)
readout-kind: IC50 (nM)

Below: 10 molecules and their reported IC50.
molecule="Cc1cc(C2CCN(C(C)c3ccc4c(n3)OCCO4)C2)cc(C)n1 (stereo not drawn)" readout_kind=IC50 assay_result=501
molecule="COc1cc(C[C@H]2CCN(C(C)c3ccc4c(n3)OCCO4)C2)cc(C(F)(F)F)n1 (stereo partly drawn)" readout_kind=IC50 assay_result=100
molecule="Cc1cc(C[C@@H]2CCN(C(C)c3nc4c(cc3F)OCCO4)C2)cc(C)n1 (single isomer, unassigned) [Product 51]" readout_kind=IC50 assay_result=398
molecule="Cc1cc(OC[C@@H]2CCN(C(C)c3ccc4c(n3)OCCO4)C2)cc(C)n1 (stereo partly drawn)" readout_kind=IC50 assay_result=251
molecule="COc1cc(OC[C@@H]2CCN(C(C)c3ccc4c(n3)OCCO4)C2)cc(C)n1 (stereo partly drawn)" readout_kind=IC50 assay_result=1000
molecule="Cc1cc(C[C@@H]2CCN(C(C)c3nc4c(cc3F)OCCO4)C2)cc(C)n1 (mixture of isomers) [Product 79]" readout_kind=IC50 assay_result=7.94
molecule="Cc1cc(O[C@@H]2CCN(C(C)c3nc4c(cc3F)OCCO4)C2)nc(C)n1 (stereo partly drawn)" readout_kind=IC50 assay_result=50.1
molecule="CC(c1cc2c(cc1F)OCCO2)N1CC[C@H](Cc2ncc(F)cc2F)C1 (stereo partly drawn) [Product 27]" readout_kind=IC50 assay_result=126
molecule=COc1cc(C[C@@H]2CCN([C@H](C)c3cc4c(cc3F)OCCO4)C2)cc(C)n1 readout_kind=IC50 assay_result=1000
molecule="Cc1cc(C[C@H]2CCN(C(C)c3cnc4c(c3)OCCN4)C2)cc(C)n1 (mixture of isomers)" readout_kind=IC50 assay_result=39.8

A: COc1cc(C[C@H]2CCN(C(C)c3cc4c(cc3F)OCCO4)C2)cc(C)n1 (single isomer, unassigned) [Product 11]
B: Cc1cc(O[C@@H]2CCN(C(C)c3nc4c(cc3F)OCCO4)C2)cc(C)n1 (single isomer, unassigned) [Product 40]
C: Cc1cc(O[C@@H]2CCN(C(C)c3nc4c(cc3F)OCCO4)C2)cc(C)n1 (single isomer, unassigned) [Product 41]
Enquiry: Place the items in sequence of falling IC50. Respond with an ordered listing of the labels, as requested.
Return: C, A, B
(C: 1580 nM, A: 25.1 nM, B: 7.94 nM)

---

molecular target: recombinant human Meningioma Expressed Antigen 5 (MGEA5), also referred to as O-GlcNAcase (OGA) (Homo sapiens, UniProt O60502); construct: Full length OGA enzyme was purchased at OriGene (cat #TP322411); purchased OriGene TP322411; assay: OGA biochemical assay (inhibition of FM-GlcNAc hydrolysis, fluorescence); details: FM-GlcNAc substrate, maximal effect, read-out: Enzymatic Emax (%)
readout-kind: Emax (%)

Below: 2 molecules and their reported Emax.
molecule="COc1cc(C[C@H]2CCN(C(C)c3ccc4c(n3)OCCC4)C2)cc(C)n1 (mixture of isomers)" readout_kind=Emax assay_result=101
molecule="COc1cc(C[C@@H]2CCN(C(C)c3nc4c(cc3F)OCCO4)C2)cc(C)n1 (mixture of isomers)" readout_kind=Emax assay_result=101

P: COc1cc(C[C@H]2CCN(C(C)c3nc4c(cc3F)OCCO4)C2)cc(C)n1 (stereo partly shown)
Q: Cc1cc(C[C@H]2CCN(Cc3ccc4c(c3)OCCN4C)C2)cc(C)n1
Enquiry: Hi! Which is lower in terms of Emax, the first one P or the second one Q ? Please respond with the label that marks your chosen entry.
Return: Q

---

Target: recombinant human Meningioma Expressed Antigen 5 (MGEA5), also referred to as O-GlcNAcase (OGA) (Homo sapiens, UniProt O60502)
Construct: Full length OGA enzyme was purchased at OriGene (cat #TP322411); purchased OriGene TP322411
Sequence (O60502 1-916): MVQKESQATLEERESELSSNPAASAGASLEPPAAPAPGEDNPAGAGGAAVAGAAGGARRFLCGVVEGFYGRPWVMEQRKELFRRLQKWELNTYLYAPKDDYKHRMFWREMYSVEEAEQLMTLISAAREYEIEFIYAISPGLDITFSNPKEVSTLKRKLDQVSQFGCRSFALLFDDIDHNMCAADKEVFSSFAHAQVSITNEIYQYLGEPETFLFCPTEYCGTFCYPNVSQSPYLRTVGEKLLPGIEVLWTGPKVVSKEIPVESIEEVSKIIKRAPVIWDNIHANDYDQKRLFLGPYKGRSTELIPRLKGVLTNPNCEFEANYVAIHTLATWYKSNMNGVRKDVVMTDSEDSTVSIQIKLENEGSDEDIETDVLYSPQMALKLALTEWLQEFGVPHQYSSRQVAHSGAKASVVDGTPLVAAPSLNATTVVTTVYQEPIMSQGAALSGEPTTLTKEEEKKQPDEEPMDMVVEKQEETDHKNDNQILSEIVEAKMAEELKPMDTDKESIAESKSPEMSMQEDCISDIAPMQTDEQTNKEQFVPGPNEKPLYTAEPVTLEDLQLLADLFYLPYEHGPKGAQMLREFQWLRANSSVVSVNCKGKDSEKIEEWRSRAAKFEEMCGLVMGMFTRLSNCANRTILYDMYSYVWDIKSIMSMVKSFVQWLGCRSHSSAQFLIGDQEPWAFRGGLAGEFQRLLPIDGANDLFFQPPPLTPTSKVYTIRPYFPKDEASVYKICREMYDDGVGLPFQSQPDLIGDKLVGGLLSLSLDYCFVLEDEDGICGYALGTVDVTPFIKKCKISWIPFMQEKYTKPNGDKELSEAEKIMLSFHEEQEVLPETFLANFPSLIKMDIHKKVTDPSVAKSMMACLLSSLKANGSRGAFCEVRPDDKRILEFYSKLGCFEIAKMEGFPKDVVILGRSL
Assay: OGA biochemical assay (inhibition of FM-GlcNAc hydrolysis, fluorescence)
Details: FM-GlcNAc substrate, 6 h at room temperature, read-out: Enzymatic hOGA, pIC50 (converted)
readout-kind: IC50 (µM)

Below: 5 compounds and their reported IC50.
compound="Cc1cc(C[C@@H]2CCN(C(C)c3cnc4c(c3)OCCO4)C2)cc(C)n1 (single isomer, unassigned) [Product 35]" assay_result=7.94
compound="Cc1cc(C[C@@H]2CCN(C(C)c3cc4c(cc3F)NCCO4)C2)cc(C)n1 (mixture of isomers)" assay_result=0.0158
compound="COc1cc(C[C@]2(C)CCN([C@H](C)c3ccc4c(n3)OCCO4)C2)cc(C)n1 (single isomer, unassigned)" assay_result=6.31
compound="Cc1cc(CC2(C)CCN(C(C)c3ccc4c(n3)OCCO4)C2)cc(C)n1 (stereo not shown) [Product 58]" assay_result=0.316
compound="Cc1cc(O[C@H]2CCN(C(C)c3ccc4c(n3)OCCO4)C2)cc(C)n1 (mixture of isomers) [Product 70]" assay_result=1.26

I: COc1cc(O[C@H]2CCN(C(C)c3ccc4c(n3)OCCO4)C2)cc(C)n1 (single isomer, unassigned) [Product 64]
II: COc1cc(C[C@H]2CCN([C@@H](C)c3cc4c(cc3F)NCCO4)C2)cc(C)n1 (racemic)
Enquiry: Compare the recorded IC50 of I and II ; state which is larger. Please respond with the label that marks your chosen entry.
Return: I

---

Biological target: recombinant human Meningioma Expressed Antigen 5 (MGEA5), also referred to as O-GlcNAcase (OGA) (Homo sapiens, UniProt O60502)
Construct: Full length OGA enzyme was purchased at OriGene (cat #TP322411); purchased OriGene TP322411
Sequence (O60502 1-916): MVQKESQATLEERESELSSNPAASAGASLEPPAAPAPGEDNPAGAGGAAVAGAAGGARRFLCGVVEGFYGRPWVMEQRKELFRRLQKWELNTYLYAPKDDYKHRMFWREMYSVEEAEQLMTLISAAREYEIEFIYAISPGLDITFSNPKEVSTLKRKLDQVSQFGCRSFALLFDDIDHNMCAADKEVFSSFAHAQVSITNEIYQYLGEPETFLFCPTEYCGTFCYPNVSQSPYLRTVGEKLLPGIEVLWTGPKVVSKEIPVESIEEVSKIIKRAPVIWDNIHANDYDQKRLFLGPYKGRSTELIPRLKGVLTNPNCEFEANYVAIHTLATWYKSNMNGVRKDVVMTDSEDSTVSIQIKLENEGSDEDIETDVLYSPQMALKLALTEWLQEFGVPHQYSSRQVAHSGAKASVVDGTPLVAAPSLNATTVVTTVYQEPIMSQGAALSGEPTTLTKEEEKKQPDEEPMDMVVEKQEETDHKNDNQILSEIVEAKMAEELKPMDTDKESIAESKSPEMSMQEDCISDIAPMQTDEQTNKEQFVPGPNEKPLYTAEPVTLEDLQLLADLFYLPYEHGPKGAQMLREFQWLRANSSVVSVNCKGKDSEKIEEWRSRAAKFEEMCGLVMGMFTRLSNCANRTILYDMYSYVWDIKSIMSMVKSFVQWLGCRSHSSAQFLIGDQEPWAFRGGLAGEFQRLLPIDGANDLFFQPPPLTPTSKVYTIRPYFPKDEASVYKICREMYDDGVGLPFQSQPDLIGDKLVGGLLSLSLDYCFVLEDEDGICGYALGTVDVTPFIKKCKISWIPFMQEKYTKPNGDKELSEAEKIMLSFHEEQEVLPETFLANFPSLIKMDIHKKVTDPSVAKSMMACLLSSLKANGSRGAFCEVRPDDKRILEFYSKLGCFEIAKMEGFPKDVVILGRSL
Experiment: OGA biochemical assay (inhibition of FM-GlcNAc hydrolysis, fluorescence)
Conditions: FM-GlcNAc substrate, maximal effect, read-out: Enzymatic Emax (%)
readout-kind: Emax (%)

Below: 3 compounds and their reported Emax.
compound="Cc1ncc(O[C@@H]2CCN(C(C)c3ccc4c(n3)OCCO4)C2)cn1 (stereo partly drawn)" assay_result=86
compound="CC(c1nc2c(cc1F)OCCO2)N1CC[C@@H](Oc2ccc(C(F)(F)F)nc2)C1 (stereo partly drawn)" assay_result=96
compound="Cc1cc(C[C@@H]2CCN(C(C)c3cnc4c(c3)OCCO4)C2)cc(C)n1 (mixture of isomers)" assay_result=97

I: Cc1cc(C2CCN(C(C)c3ccc4c(n3)OCCO4)C2)cc(C)n1 (stereo not drawn)
II: C[C@H](c1ccc2c(n1)OCCO2)N1CC[C@H](Cc2ncc(F)cc2F)C1 (single isomer, unassigned)
Enquiry: Hi! Which is lower in terms of Emax, the first one I or the second one II ? Please respond with the label that marks your chosen entry.
Return: II
